Entries and their Vmax
Biological target: PARP-1 (Homo sapiens, UniProt P09874)
Construct: made in house
Sequence (P09874 whole entry): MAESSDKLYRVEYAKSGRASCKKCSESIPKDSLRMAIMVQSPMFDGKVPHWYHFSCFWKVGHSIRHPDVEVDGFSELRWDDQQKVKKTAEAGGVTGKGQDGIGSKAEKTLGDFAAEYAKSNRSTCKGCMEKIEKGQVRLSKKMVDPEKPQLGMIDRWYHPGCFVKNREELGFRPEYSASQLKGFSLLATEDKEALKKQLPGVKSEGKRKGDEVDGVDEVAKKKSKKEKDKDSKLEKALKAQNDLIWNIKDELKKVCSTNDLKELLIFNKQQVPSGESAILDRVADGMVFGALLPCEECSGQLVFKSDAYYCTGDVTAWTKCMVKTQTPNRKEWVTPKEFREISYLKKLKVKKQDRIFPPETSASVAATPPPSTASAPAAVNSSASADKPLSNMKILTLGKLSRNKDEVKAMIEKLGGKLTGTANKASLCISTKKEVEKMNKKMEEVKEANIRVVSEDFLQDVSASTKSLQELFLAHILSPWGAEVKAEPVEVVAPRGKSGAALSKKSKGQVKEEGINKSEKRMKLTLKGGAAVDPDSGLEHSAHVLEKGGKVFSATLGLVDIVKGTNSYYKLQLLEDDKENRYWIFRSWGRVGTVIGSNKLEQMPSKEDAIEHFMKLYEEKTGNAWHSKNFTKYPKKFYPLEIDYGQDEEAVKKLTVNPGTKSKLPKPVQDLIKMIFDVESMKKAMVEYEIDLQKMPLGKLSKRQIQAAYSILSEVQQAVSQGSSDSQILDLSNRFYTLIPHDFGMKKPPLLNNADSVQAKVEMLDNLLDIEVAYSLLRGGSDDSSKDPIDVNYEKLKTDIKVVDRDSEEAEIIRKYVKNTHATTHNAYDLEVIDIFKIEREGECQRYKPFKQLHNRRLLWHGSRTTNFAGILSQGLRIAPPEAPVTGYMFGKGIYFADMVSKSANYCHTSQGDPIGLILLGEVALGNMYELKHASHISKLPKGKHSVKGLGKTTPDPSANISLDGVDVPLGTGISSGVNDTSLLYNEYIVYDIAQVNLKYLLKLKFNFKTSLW
Experiment: kinetics of PARP-1 inhibition (Km, Vmax, type of inhibition) by fluorescence anisotropy
Assay type: biochemical
Details: inhibitor concentration 100 μМ
Just the number in RFU/sec, nothing appended.

Below, 3 compounds whose answers are already recorded.
>  <compound>
Nc1ncnc2c1ncn2C1OC(COP(=O)(O)OP(=O)(O)NCC2CNCC(n3cc(I)c(=O)[nH]c3=O)O2)C(O)C1O (stereo not shown) [Compound 10IU]

>  <unit annotation>
RFU/sec

>  <Vmax>
0.18

$$$$
>  <compound>
NC(=O)c1cccc(N)c1 [Compound 3-AB, 3-aminobenzamide, reference compound]

>  <unit annotation>
RFU/sec

>  <Vmax>
0.16

$$$$
>  <compound>
O=c1[nH]c(=O)n([C@H]2CNC[C@@H](CO)O2)cc1I [Compound 11IU]

>  <unit annotation>
RFU/sec

>  <Vmax>
0.066

$$$$

# next compound below
Which Vmax value is on record for Nc1ncnc2c1ncn2C1OC(COP(=O)(O)OP(=O)(O)OCC2CNCC(n3cc(I)c(=O)[nH]c3=O)O2)C(O)C1O (stereo not shown) ?
0.15
